# target.desc: T1, human CTGF (antigen of the Biacore assays) (human, UniProt P29279 27-349)
# T1 construct: also called antigen human CTGF; human CTGF protein
# T1 sequence (looked up): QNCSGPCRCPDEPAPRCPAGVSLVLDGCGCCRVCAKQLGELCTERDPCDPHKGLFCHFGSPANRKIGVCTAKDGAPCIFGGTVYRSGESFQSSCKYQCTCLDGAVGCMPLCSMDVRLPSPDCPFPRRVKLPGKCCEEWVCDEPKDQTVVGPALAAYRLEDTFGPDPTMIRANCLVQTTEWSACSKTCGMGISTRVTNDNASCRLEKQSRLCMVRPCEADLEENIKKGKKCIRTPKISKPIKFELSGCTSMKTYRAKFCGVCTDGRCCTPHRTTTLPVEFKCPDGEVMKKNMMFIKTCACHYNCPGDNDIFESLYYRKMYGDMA
# assay.overview: Biacore, CTGF immobilised, antibody 150 µg/ml then 50 nM TGF-β1 (competitor TGF-β1)
parameter.measured: Function-blocking percentage (%)
Give your result in % as a bare value.

Please review the entries below; each comes with its answer.
Hu147-32wk (antibody, human IgG1, kappa, V domains shown) VH: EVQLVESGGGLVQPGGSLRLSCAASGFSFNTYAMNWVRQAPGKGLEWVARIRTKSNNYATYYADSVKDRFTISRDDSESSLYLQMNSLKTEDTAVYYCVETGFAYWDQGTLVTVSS VL: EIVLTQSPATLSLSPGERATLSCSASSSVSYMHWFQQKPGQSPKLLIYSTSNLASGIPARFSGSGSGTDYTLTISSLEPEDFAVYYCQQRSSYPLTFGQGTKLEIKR = 55.2
Hu147-12wk (antibody, human IgG1, kappa, V domains shown) VH: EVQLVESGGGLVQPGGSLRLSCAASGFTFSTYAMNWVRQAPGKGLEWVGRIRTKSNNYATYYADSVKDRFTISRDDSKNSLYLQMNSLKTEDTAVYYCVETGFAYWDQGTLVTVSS VL: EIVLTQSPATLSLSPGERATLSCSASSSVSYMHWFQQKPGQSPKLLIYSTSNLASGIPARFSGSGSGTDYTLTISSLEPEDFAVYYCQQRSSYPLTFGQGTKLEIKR = 51.6
Hu147-21wk (antibody, human IgG1, kappa, V domains shown) VH: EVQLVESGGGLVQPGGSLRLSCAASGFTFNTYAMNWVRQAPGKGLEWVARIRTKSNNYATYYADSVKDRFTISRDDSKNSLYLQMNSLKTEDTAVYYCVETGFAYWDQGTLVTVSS VL: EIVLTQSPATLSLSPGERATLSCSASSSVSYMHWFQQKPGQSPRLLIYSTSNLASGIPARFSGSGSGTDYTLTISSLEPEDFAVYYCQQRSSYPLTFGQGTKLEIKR = 51.6
Hu147-11wk (antibody, human IgG1, kappa, V domains shown) VH: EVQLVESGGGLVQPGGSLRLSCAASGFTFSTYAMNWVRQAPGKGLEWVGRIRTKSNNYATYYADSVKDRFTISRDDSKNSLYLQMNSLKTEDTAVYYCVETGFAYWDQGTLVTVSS VL: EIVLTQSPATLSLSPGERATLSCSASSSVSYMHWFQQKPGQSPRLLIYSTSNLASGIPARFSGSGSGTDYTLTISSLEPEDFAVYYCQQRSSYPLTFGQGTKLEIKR = 50.8
Hu147-24wk (antibody, human IgG1, kappa, V domains shown) VH: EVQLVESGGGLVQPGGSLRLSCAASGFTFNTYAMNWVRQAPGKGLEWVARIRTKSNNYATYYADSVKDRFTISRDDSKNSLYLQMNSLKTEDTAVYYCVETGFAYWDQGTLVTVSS VL: DIQMTQSPSSLSASVGDRVTITCSASSSVSYMHWFQQKPGKSPKLLIYSTSNLASGVPSRFSGSGSGTDYTLTISSLQPEDFATYYCQQRSSYPLTFGQGTKLEIKR = 52.8

Consider the binder shown here: Hu147-14wk (antibody, human IgG1, kappa, V domains shown) VH: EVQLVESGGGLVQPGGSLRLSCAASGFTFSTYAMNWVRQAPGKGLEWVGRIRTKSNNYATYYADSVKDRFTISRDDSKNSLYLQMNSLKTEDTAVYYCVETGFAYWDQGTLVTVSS VL: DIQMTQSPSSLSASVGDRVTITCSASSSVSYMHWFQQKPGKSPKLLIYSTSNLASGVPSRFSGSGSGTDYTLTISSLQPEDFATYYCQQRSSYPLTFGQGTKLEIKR What is its recorded Function-blocking percentage (%)?
50.9
